ASSAY_TARGET: caspase-3 (Homo sapiens, UniProt P42574)
Construct: made in house; host or cells: E. coli
Sequence (P42574 29-175 limits assumed): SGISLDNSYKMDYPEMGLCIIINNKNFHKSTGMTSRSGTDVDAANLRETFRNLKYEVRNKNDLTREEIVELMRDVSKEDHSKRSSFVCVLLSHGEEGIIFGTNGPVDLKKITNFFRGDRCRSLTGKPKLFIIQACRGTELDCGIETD
Sequence (P42574 176-277 limits assumed): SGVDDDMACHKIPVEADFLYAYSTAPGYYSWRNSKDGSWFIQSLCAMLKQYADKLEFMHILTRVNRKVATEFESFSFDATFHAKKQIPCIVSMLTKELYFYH
PROTOCOL: Caspase-3 progress curve assay
Type: biochemical
CONDITION_NOTES: substrate Z-DEVD-AFC; NI = no inhibition
Classification field: 1 = k2 caspase-3 at or over 3000 M⁻¹ s⁻¹; 0 = k2 caspase-3 under 3000 M⁻¹ s⁻¹.

Observe how each entry below is paired with its result.
MOLECULE	CATEGORY_LABEL
CC(C)[C@H](NC(=O)CCc1ccccc1)C(=O)N[C@@H](C)C(=O)NN(CC(=O)O)C(=O)[C@H]1O[C@@H]1C(=O)OCCc1ccccc1 [23e]	0
CC(C)[C@H](NC(=O)[C@H](CCC(=O)O)NC(=O)[C@H](CC(=O)O)NC(=O)OCc1ccccc1)C(=O)NN(CC(=O)O)C(=O)[C@H]1O[C@@H]1C(=O)N[C@@H](Cc1ccccc1)C(N)=O [25l, Cbz-Asp-Glu-Val-AAsp-(S,S)-EP-CO-Phe-NH2]	1
CCOC(=O)[C@@H]1O[C@H]1C(=O)N(CC(=O)O)NC(=O)[C@@H](NC(=O)[C@H](CCC(=O)O)NC(=O)[C@H](CC(C)C)NC(=O)OCc1ccccc1)[C@@H](C)O [26c (R,R)]	1

Confirm if k2 caspase-3 reported for the molecule CCOC(=O)[C@@H]1O[C@H]1C(=O)N(CC(=O)O)NC(=O)[C@@H](NC(=O)[C@H](CCC(=O)O)NC(=O)[C@@H](NC(=O)OCc1ccccc1)[C@@H](C)CC)[C@@H](C)O [27c (R,R)] is 3000 M⁻¹ s⁻¹ or above.
0

Can you check CC(C)[C@H](NC(=O)[C@H](CCC(=O)O)NC(=O)OCc1ccccc1)C(=O)NN(CC(=O)O)C(=O)[C@H]1O[C@@H]1C(=O)NCCc1ccccc1 [24h] next?
1

CC[C@H](C)[C@H](NC(=O)OCc1ccccc1)C(=O)N[C@@H](CCC(=O)O)C(=O)N[C@H](C(=O)NN(CC(=O)O)C(=O)[C@H]1O[C@@H]1C(=O)N(C)Cc1ccccc1)[C@@H](C)O [11-18] ?
1

Another: CC(C)C[C@H](NC(=O)OCc1ccccc1)C(=O)N[C@@H](CCC(=O)O)C(=O)N[C@H](C(=O)NN(CC(=O)O)C(=O)[C@H]1O[C@@H]1C(=O)N(C)Cc1ccccc1)[C@@H](C)O [11-16]
0

Now try CC(C)[C@H](NC(=O)CCc1ccccc1)C(=O)N[C@@H](C)C(=O)NN(CC(=O)O)C(=O)[C@H]1O[C@@H]1C(=O)NC(Cc1ccc(O)cc1)C(N)=O (stereo partly shown) [23m] .
0

Record: CCOC(=O)[C@H]1O[C@@H]1C(=O)N(CC(=O)O)NC(=O)[C@@H](NC(=O)[C@H](CCC(=O)O)NC(=O)[C@H](CC(C)C)NC(=O)OCc1ccccc1)[C@@H](C)O [26c (S,S)]
1

* * *

ASSAY_TARGET: papain (Carica papaya, UniProt P00784)
Sequence (P00784 134-345): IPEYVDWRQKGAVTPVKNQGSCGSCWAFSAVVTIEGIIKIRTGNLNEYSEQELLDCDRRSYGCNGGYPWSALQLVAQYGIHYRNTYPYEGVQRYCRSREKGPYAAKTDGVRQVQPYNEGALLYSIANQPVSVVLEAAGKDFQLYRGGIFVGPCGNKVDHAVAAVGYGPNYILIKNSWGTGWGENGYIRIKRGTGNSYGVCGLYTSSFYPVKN
PROTOCOL: Inhibition of papain, incubation method
Assay type: biochemical
CONDITION_NOTES: pH 7.5; second-order rate constant; NI = no inhibition; read-out: kobs/[I] papain
Values of kinact/KI greater than or equal to 8 M⁻¹ s⁻¹ map to YES; values below map to NO.

Use these answered entries as a reference point.
COMPOUND	CATEGORY_LABEL
O=C(OCc1ccccc1)N(NCc1ccccc1)C(=O)[C@@H]1O[C@H]1CCc1ccccc1 (relative stereo) [Cbz-APhe-trans-EP-CH2CH2Ph]	NO
CC(C)C[C@H](NC(=O)OCc1ccccc1)C(=O)N[C@@H](CC(C)C)C(=O)NN(CC(C)C)C(=O)[C@H]1O[C@@H]1C(=O)O	NO
CCOC(=O)[C@@H]1O[C@H]1C(=O)N(CC(C)C)NC(=O)[C@H](CC(C)C)NC(C)=O (relative stereo) [Ac-Leu-ALeu-trans-EP-COOEt]	NO

Does the compound CCCC[C@H](NC(=O)OC(C)(C)C)C(=O)NN(CCc1ccccc1)C(=O)[C@@H]1O[C@H]1C(=O)OCC (relative stereo) [Boc-Nle-AHph-trans-EP-COOEt] have recorded kinact/KI that is 8 M⁻¹ s⁻¹ or more?
NO

What do you have for CCOC(=O)[C@@H]1O[C@H]1C(=O)N(CC(C)C)NC(=O)[C@H](CC(C)C)NC(=O)[C@H](CC(C)C)NC(=O)OCc1ccccc1 (relative stereo) [Cbz-Leu-Leu-ALeu-trans-EP-COOEt] ?
YES

Then what about the compound CCOC(=O)[C@@H]1O[C@H]1C(=O)N(NCc1ccccc1)C(=O)OCc1ccccc1 (relative stereo) [Cbz-APhe-trans-EP-COOEt] ?
YES

Would you mind doing CCOC(=O)[C@H]1O[C@@H]1C(=O)N(CC(N)=O)NC(=O)[C@H](C)NC(=O)[C@H](C)NC(=O)OCc1ccccc1 as well?
NO

Next entry: CCOC(=O)[C@H]1O[C@@H]1C(=O)N(CC(=O)O)NC(=O)[C@@H](NC(=O)[C@H](CCC(=O)O)NC(=O)[C@H](CC(C)C)NC(=O)OCc1ccccc1)[C@@H](C)O [26c (S,S)]
NO

Okay, and CCOC(=O)[C@@H]1O[C@H]1C(=O)N(CC(C)C)NC(=O)[C@H](CC(C)C)NC(=O)[C@H](CC(C)C)NC(=O)OCc1ccccc1 [Cbz-Leu-Leu-ALeu-(2R, 3R)-EP-COOEt] ?
YES
